Assay: Growth inhibition of HUVEC at 10 uM
Format: cell-based
Conditions: human, HUVEC cells
metric_name: inhibition at 10 µM

Report inhibition at 10 µM for COC(=O)[C@]1(C)[C@@H]2CC[C@]3(C)\C(=C(C)/C=C/C=C(C)/C=C/C=C(C)C)C(=O)C[C@H]3[C@@]2(C)CC[C@H]1OC(C)=O please.
> 90%

* * *

Test: Growth inhibition of HUVEC at 1 uM
Type: cell-based
Settings: human, HUVEC cells
metric_name: inhibition at 1 µM

inhibition at 1 µM for COC(=O)[C@]1(C)[C@@H]2CC[C@]3(C)\C(=C(C)/C=C/C=C(C)/C=C/C=C(C)C)C(=O)C[C@H]3[C@@]2(C)CC[C@H]1OC(C)=O ?
> 90%

* * *

Tested on: K562
Test: Selectivity index, ratio of IC50 for K562 cells to IC50 for HUVEC cells
Type: functional, Homo sapiens
Recorded Ratio IC50 for the following compounds
Note: the reply should be a number with no unit written.

| compound | Ratio IC50 |
| --- | --- |
| COC(=O)[C@]1(C)[C@@H]2CC[C@]3(C)\C(=C(C)/C=C/C=C(C)/C=C/C=O)C(=O)C[C@H]3[C@@]2(C)CC[C@H]1OC(C)=O | 10 |
| COC(=O)[C@]1(C)[C@@H]2CC[C@]3(C)\C(=C(C)/C=C/C=C(\C)C(/C=C/C(C)(C)O)OC)C(=O)C[C@H]3[C@@]2(C)CC[C@H]1OC(C)=O (some centres undefined) | 9 |
| COC(=O)[C@@]1(C)[C@H](O)CC[C@@]2(C)[C@H]1CC[C@]1(C)\C(=C(C)/C=C/C=C(C)/C=C/C=C(C)C)C(=O)C[C@@H]21 | 27 |
| CC(=O)O[C@@H]1CC[C@@]2(C)[C@@H](CC[C@]3(C)/C(=C(C)/C=C/C=O)C(=O)C[C@@H]23)[C@@]1(C)C(=O)O | 15 |
| COC(=O)[C@]1(C)[C@@H]2CC[C@]3(C)\C(=C(C)/C=C/C=C(C)/C=C/C=C(C)C)C(=O)C[C@H]3[C@@]2(C)CC[C@H]1OC(C)=O | 256 |
| COC(=O)[C@]1(C)[C@@H]2CC[C@]3(C)/C(=C(C)/C=C/C=C(C)/C=C/C=C(C)C)C(=O)C[C@H]3[C@@]2(C)CC[C@H]1OC(C)=O | 141 |
| COC(=O)[C@]1(C)[C@@H]2CC[C@]3(C)/C(=C(C)/C=C/C=C(C)\C=C\C=C(C)C)C(=O)C[C@H]3[C@@]2(C)CC[C@H]1OC(C)=O | 55 |
| COC(=O)[C@]1(C)[C@@H]2CC[C@]3(C)\C(=C(C)/C=C/C=C(C)\C=C\C=C(C)C)C(=O)C[C@H]3[C@@]2(C)CC[C@H]1OC(C)=O | 360 |

Please find the next compound below.
What Ratio IC50 value was documented for this compound, COC(=O)[C@]1(C)[C@@H]2CC[C@]3(C)\C(=C(C)/C=C/C=C(C)/C=C/C(O)C(C)(C)O)C(=O)C[C@H]3[C@@]2(C)CC[C@H]1OC(C)=O (some centres undefined) ?
12

* * *

Tested on: HUVEC
Assay: Selectivity index, ratio of IC50 for Neuro2A cells to IC50 for HUVEC cells
Assay type: functional, Homo sapiens
Please respond with yes (1) when measured Ratio IC50 is strictly beneath 20, and with no (0) in all other cases.

Worked examples, 5 compounds total:
| compound | classification |
| --- | --- |
| COC(=O)[C@]1(C)[C@@H]2CC[C@]3(C)/C(=C(C)/C=C/C=C(C)/C=C/C=C(C)C)C(=O)C[C@H]3[C@@]2(C)CC[C@H]1OC(C)=O | no (0) |
| COC(=O)[C@@]1(C)[C@H](O)CC[C@@]2(C)[C@H]1CC[C@]1(C)\C(=C(C)/C=C/C=C(C)/C=C/C=C(C)C)C(=O)C[C@@H]21 | no (0) |
| COC(=O)[C@]1(C)[C@@H]2CC[C@]3(C)/C(=C(C)/C=C/C=C(C)\C=C\C=C(C)C)C(=O)C[C@H]3[C@@]2(C)CC[C@H]1OC(C)=O | yes (1) |
| COC(=O)[C@]1(C)[C@@H]2CC[C@]3(C)\C(=C(C)/C=C/C=C(\C)C(/C=C/C(C)(C)O)OC)C(=O)C[C@H]3[C@@]2(C)CC[C@H]1OC(C)=O (stereo partly specified) | yes (1) |
| CC(=O)O[C@@H]1CC[C@@]2(C)[C@@H](CC[C@]3(C)/C(=C(C)/C=C/C=O)C(=O)C[C@@H]23)[C@@]1(C)C(=O)O [ACETYLJASPIFERAL E] | yes (1) |

Consider the compound COC(=O)[C@]1(C)[C@@H]2CC[C@]3(C)\C(=C(C)/C=C/C=C(C)/C=C/C=C(C)C)C(=O)C[C@H]3[C@@]2(C)CC[C@H]1OC(C)=O . Is its Ratio IC50 strictly less than 20?
no (0)

* * *

Test system: HUVEC
Test: Selectivity index, ratio of IC50 for Neuro2A cells to IC50 for HUVEC cells
Assay type: functional, Homo sapiens
metric_name: Ratio IC50
Enter a number only.

| molecule | system | metric_name | readout_value |
| --- | --- | --- | --- |
| COC(=O)[C@]1(C)[C@@H]2CC[C@]3(C)\C(=C(C)/C=C/C=C(C)/C=C/C(O)C(C)(C)O)C(=O)C[C@H]3[C@@]2(C)CC[C@H]1OC(C)=O (stereo partly drawn) | HUVEC | Ratio IC50 | 5 |
| COC(=O)[C@]1(C)[C@@H]2CC[C@]3(C)\C(=C(C)/C=C/C=C(C)\C=C\C=C(C)C)C(=O)C[C@H]3[C@@]2(C)CC[C@H]1OC(C)=O | HUVEC | Ratio IC50 | 75 |

Could you now look at the following molecule, please?
Ratio IC50 for COC(=O)[C@]1(C)[C@@H]2CC[C@]3(C)\C(=C(C)/C=C/C=C(C)/C=C/C=O)C(=O)C[C@H]3[C@@]2(C)CC[C@H]1OC(C)=O ?
28
